Each entry below lists one item and its recorded Ratio IC50 value.
Assay: Resistance index, ratio of IC50 for antimalarial activity against multidrug resistant Plasmodium falciparum Dd2 to IC50 for antimalarial activity against chloroquine sensitive Plasmodium falciparum 3D7
Format: toxicity

[
  {
    "Chemical structure": "CCc1nc(N)nc(N)c1-c1ccc(Cl)cc1",
    "Readout relation": ">",
    "Ratio IC50": 1010
  },
  {
    "Chemical structure": "COC(=O)c1cc2c(c(OC)c1OC)[C@H](C)C[C@@H](OC(=O)Nc1ccccc1)[C@H]2[C@@H](C)CCC=C(C)C",
    "Readout relation": "=",
    "Ratio IC50": 1.1
  },
  {
    "Chemical structure": "C[C@H]1[C@@H](O)O[C@@H]2O[C@@]3(C)CC[C@H]4[C@H](C)CC[C@@H]1[C@@]24OO3",
    "Readout relation": "=",
    "Ratio IC50": 2.2
  }
]

====

Assay: Cytotoxicity against HEK293 cells assessed as inhibition of cell growth at 80 uM incubated for 72 hrs by alamar blue dye based fluorescence assay relative to control
Type: toxicity
Details: human
Each entry below lists one item and its recorded inhibition at 72 h, 80 µM value.

[
  {
    "Chemical structure": "COC(=O)c1cc2c(c(OC)c1OC)[C@H](C)C[C@@H](OC(=O)NS(=O)(=O)c1ccc(C)cc1)[C@H]2[C@@H](C)CCC=C(C)C",
    "Unit name": "%",
    "inhibition at 72 h, 80 µM": 11
  },
  {
    "Chemical structure": "COC(=O)c1cc2c(c(OC)c1OC)[C@H](C)C[C@@H](OC(=O)Nc1cccc(Cl)c1)[C@H]2[C@@H](C)CCC=C(C)C",
    "Unit name": "%",
    "inhibition at 72 h, 80 µM": 42
  },
  {
    "Chemical structure": "COC(=O)c1cc2c(c(OC)c1OC)[C@H](C)C[C@@H](OC(=O)Nc1ccc(F)cc1)[C@H]2[C@@H](C)CCC=C(C)C",
    "Unit name": "%",
    "inhibition at 72 h, 80 µM": 25
  },
  {
    "Chemical structure": "COC(=O)c1cc2c(c(OC)c1OC)[C@H](C)C[C@@H](OC(=O)Nc1ccc(C#N)cc1)[C@H]2[C@@H](C)CCC=C(C)C",
    "Unit name": "%",
    "inhibition at 72 h, 80 µM": 2
  },
  {
    "Chemical structure": "COC(=O)c1cc2c(c(OC)c1OC)[C@H](C)C[C@@H](OC(=O)Nc1ccc(OC)cc1)[C@H]2[C@@H](C)CCC=C(C)C",
    "Unit name": "%",
    "inhibition at 72 h, 80 µM": 26
  },
  {
    "Chemical structure": "COC(=O)c1cc2c(c(OC)c1OC)[C@H](C)C[C@@H](OC(=O)Nc1ccc(C)cc1)[C@H]2[C@@H](C)CCC=C(C)C",
    "Unit name": "%",
    "inhibition at 72 h, 80 µM": 12
  },
  {
    "Chemical structure": "CC(C)=CCC[C@H](C)[C@H]1c2cc(C(=O)O)c(O)c(O)c2[C@H](C)C[C@H]1O",
    "Unit name": "%",
    "inhibition at 72 h, 80 µM": 8
  },
  {
    "Chemical structure": "COC(=O)c1cc2c(c(OC)c1OC)[C@H](C)C[C@@H](OC(=O)Nc1ccc(Cl)cc1)[C@H]2[C@@H](C)CCC=C(C)C",
    "Unit name": "%",
    "inhibition at 72 h, 80 µM": 3.1
  },
  {
    "Chemical structure": "COC(=O)c1cc2c(c(OC)c1OC)[C@H](C)C[C@@H](OC(=O)NCc1ccccc1)[C@H]2[C@@H](C)CCC=C(C)C",
    "Unit name": "%",
    "inhibition at 72 h, 80 µM": 24
  },
  {
    "Chemical structure": "COC(=O)c1cc2c(c(OC)c1OC)[C@H](C)C[C@@H](OC(=O)Nc1ccccc1)[C@H]2[C@@H](C)CCC=C(C)C",
    "Unit name": "%",
    "inhibition at 72 h, 80 µM": 47
  },
  {
    "Chemical structure": "COC(=O)c1cc2c(c(OC)c1OC)[C@H](C)C[C@@H](OC(=O)Nc1ccc([N+](=O)[O-])cc1)[C@H]2[C@@H](C)CCC=C(C)C",
    "Unit name": "%",
    "inhibition at 72 h, 80 µM": 52
  },
  {
    "Chemical structure": "COC(=O)c1cc2c(c(OC)c1OC)[C@H](C)C[C@@H](OC(=O)Nc1cc(C(F)(F)F)cc(C(F)(F)F)c1)[C@H]2[C@@H](C)CCC=C(C)C",
    "Unit name": "%",
    "inhibition at 72 h, 80 µM": 34
  },
  {
    "Chemical structure": "COC(=O)c1cc2c(c(OC)c1OC)[C@H](C)C[C@@H](O)[C@H]2[C@@H](C)CCC=C(C)C",
    "Unit name": "%",
    "inhibition at 72 h, 80 µM": 4
  }
]

// provenance: ChEMBL document CHEMBL5252581
